Where do these numbers come from? They come from patent US20200308301A1.

# TESTED_TARGET: T1, NOV1401
# T1 construct: It was amine-coupled to the chip in SPR, and used soluble and biotinylated in SET; also called anti-FXI/FXIa antibody NOV1401; anti-Factor XI/FXIa antibody NOV1401
# T1 sequence (VL, as listed by the source): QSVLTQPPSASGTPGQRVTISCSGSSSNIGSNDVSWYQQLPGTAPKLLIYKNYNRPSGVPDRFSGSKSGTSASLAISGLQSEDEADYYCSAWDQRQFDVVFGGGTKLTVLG
# ASSAY_DETAILS: SPR (ProteOn XPR36), NOV1401 immobilized, Fab as analyte, 1:1 Langmuir fit, average
PARAMETER: Kd (nM)
The response must be a number in nM with no trailing unit.

Sample answers from the record:
IDT2 (Fab, V domains shown, Fab; also called anti-NOV1401 Fab IDT2) VH: QVQLVESGGGLVKPGGSLRLSCAASGFTFSSAAVHWVRQAPGKGLEWVGRIKSKADGGTTDYAAPVKGRFTISRDDSKNTLYLQMNSLKTEDTAVYYCARDSPSISSYSIPYFSGMDVWGQGTLVTVSS VL: DIQMTQSPSSLSASVGDRVTITCRASQGIRAWLNWYQQKPGKAPKLLIYAASSLQSGVPSRFSGSGSGTDFTLTISSLQPEDFATYYCHQYITHPPTFGQGTKVEIKR | 0.23
IDT1 (Fab, V domains shown, Fab (heavy chain is VH-CH1); also called anti-NOV1401 Fab IDT1) VH: QVQLLESGGGLVQPGGSLRLSCAASGFTFSDYAMSWVRQAPGKGLEWVSVIDYSSSNTYYADSVKGRFTISRDNSKNTLYLQMNSLRAEDTAVYYCAREGYSYRSIRFDYWGQGTLVTVSS VL: DIQMTQSPSSLSASVGDRVTITCRASQSISSNLNWYQQKPGKAPKLLIYAASNLQSGVPSRFSGSGSGTDFTLTISSLQPEDFATYYCLQFDHTPFTFGQGTKVEIKR | 0.44
IDT10 (Fab, V domains shown, Fab; also called anti-NOV1401 Fab IDT10) VH: QVQLVQSGAEVKKPGASVKVSCKASGYTFTNYYVHWVRQAPGQGLEWMGWINPYSGNTNYAQKFQGRVTMTRDTSISTAYMELSRLRSEDTAVYYCARGASSIRMSYYLDVWGQGTLVTVSS VL: DIQMTQSPSSLSASVGDRVTITCRASQSISNYLNWYQQKPGKAPKLLIYAASNLQSGVPSRFSGSGSGTDFTLTISSLQPEDFATYYCFQYTHSPATFGQGTKVEIKR | 5.97

query: // lookup Kd for IDT8 (Fab, V domains shown, Fab; also called anti-NOV1401 Fab IDT8) VH: QVQLVESGGGLVKPGGSLRLSCAASGFTFSSNAMHWVRQAPGKGLEWVGRIKSKTSGGTTDYAAPVKGRFTISRDDSKNTLYLQMNSLKTEDTAVYYCARDHYYYPFAYWGQGTLVTVSS VL: DIQMTQSPSSLSASVGDRVTITCRASQSIRYNLAWYQQKPGKAPKLLIYAASSLQSGVPSRFSGSGSGTDFTLTISSLQPEDFATYYCHQYIAKPITFGQGTKVEIKR
result: 2.15

query: // lookup Kd for IDT7 (Fab, V domains shown, Fab; also called anti-NOV1401 Fab IDT7) VH: QVQLVESGGGLVKPGGSLRLSCAASGFTFSSNAMHWVRQAPGKGLEWVGRIKSKTDGGTTDYAAPVKGRFTISRDDSKNTLYLQMNSLKTEDTAVYYCARDHYYYPFAYWGQGTLVTVSS VL: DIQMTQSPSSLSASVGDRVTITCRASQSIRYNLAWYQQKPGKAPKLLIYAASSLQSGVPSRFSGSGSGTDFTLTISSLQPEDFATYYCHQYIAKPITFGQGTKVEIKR
result: 0.33
